# assayed system: T1, human Dectin-1 (biosensor tests of Tables 3, 4A and 9; construct not stated) (human, UniProt Q9BXN2 66-247, limits assumed)
# T1 construct: also called hDectin-1
# T1 sequence (looked up): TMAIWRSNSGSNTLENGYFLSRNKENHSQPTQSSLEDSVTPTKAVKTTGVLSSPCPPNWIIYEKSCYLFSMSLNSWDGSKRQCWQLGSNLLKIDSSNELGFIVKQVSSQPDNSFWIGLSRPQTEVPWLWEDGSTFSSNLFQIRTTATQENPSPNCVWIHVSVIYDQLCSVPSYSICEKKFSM
# test name: Fab K dis, run 1
Overview of reported koff across a group of binders:
// unit must come after the numeric part

Previously resolved entries follow.
[
  {
    "binder": "2M24A.31 hFab L2 (Fab, V domains shown, Fab; also called 2M24.L2) VH: QVQLVQSGAEVKKPGASVKVSCKSSGYTFTDYYIHWVRQAPGQGLEWMGWINPNSGDTNYAQKFQGRITMTRDTSISTAYLELSRLRSDDTAVFYCARNSGSYSFGYWGQGTLVTVSS VL: DIQMTQSPSSVSASVGDRVTITCRASQGISSWLAWYQQKPGKAPKLLIYGASSLQSGVPSRFSGSGSGTDFTLTISSLQPEDFATYYCQQAYSFPFTFGPGTKVDIE",
    "measured": "0.00635 s⁻¹"
  },
  {
    "binder": "2M24A.30 hFab L1 (Fab, V domains shown, Fab; also called 2M24.L1) VH: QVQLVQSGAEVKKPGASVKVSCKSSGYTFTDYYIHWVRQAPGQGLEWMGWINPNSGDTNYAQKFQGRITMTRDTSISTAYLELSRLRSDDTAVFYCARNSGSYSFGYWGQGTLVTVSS VL: DIQMTQSPSSVSASVGDRVTITCRASQGISSWLAWYQQKPGKAPKLLIFGASSLQSGVPSRFSGSGSGTDFTLTISSLQPEDFATYYCQQAYSFPFTFGPGTKVDIE",
    "measured": "0.00631 s⁻¹"
  },
  {
    "binder": "2M24A.32 hFab L3 (Fab, V domains shown, Fab; also called 2M24.L3) VH: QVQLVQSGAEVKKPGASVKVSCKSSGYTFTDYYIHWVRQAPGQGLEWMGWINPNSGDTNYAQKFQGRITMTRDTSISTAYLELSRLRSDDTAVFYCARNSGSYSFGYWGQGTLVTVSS VL: DIQMTQSPSSVSASVGDRVTITCRASQGISSWLAWYQQKPGKAPKLLIFAASSLQSGVPSRFSGSGSGTDFTLTISSLQPEDFATYYCQQAYSFPFTFGPGTKVDIE",
    "measured": "0.00671 s⁻¹"
  }
]

// switching to the query binder
QUERY: // query koff value for entry 2M24A.33 hFab L4 (Fab, V domains shown, Fab; also called 2M24.L4) VH: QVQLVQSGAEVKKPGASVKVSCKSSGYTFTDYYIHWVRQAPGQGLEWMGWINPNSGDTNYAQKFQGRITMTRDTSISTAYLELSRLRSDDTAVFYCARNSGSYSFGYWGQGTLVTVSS VL: DIQMTQSPSSVSASVGDRVTITCRASQGISSWLAWYQQKPGKAPKLLIYAASSLQSGVPSRFSGSGSGTDFTLTISSLQPEDFATYYCQQAYSFPFTFGPGTKVDIE
RESULT: 0.00615 s⁻¹
